Assay: Cmax in ICR mouse at 8.2 mg/kg, po administered as single dose or 3 mg/kg, iv by LC-MS/MS analysis
Assay type: ADME, organism-based
Settings: in vivo
Measured Endpoint: Cmax
In your response, the unit should come after the numeric value.

What measured Cmax goes with `Cc1cc(NC(=O)Nc2cc(C(C)(C)C)nn2-c2ccccc2)ccc1-c1cnc(NC2CC2)c2nccn12` ?
1930 ng/mL

###

Recorded remaining at 1 h values for a group of molecules are listed next.
Experiment: Stability in human liver microsomes assessed as parent compound remaining after 60 mins in presence of NADPH by HPLC analysis
Type: ADME, Microsome
Conditions: read-out: Stability

What measured remaining at 1 h goes with `Cc1cc(NC(=O)Nc2cc(C(C)(C)C)nn2-c2ccccc2)ccc1-c1cnc(NC2CC2)c2nccn12` ?
37%

More entries:
What measured remaining at 1 h goes with `Cc1cc(NC(=O)Nc2cc(C(C)(C)C)nn2-c2cccc(C#N)c2)ccc1-c1cnc(NC2CC2)c2nccn12` ?
33%

###

Assay: Half life in ICR mouse at 8.2 mg/kg, po administered as single dose or 3 mg/kg, iv by LC-MS/MS analysis
Type: ADME, organism-based
Settings: in vivo
Measured Endpoint: half-life (h)
A number alone suffices; assume h.

What measured half-life goes with `Cc1cc(NC(=O)Nc2cc(C(C)(C)C)nn2-c2ccccc2)ccc1-c1cnc(NC2CC2)c2nccn12` ?
1.6

###

Assay: Stability in human plasma assessed as parent compound remaining after 6 hrs by LC-MS/MS analysis
Assay type: ADME, cell-free
Conditions: read-out: Stability
Recorded remaining at 6 h values for a group of molecules are listed next.
A number alone suffices; assume %.

What measured remaining at 6 h goes with `Cc1cc(NC(=O)Nc2cc(C(C)(C)C)nn2-c2ccccc2)ccc1-c1cnc(NC2CC2)c2nccn12` ?
90

Next:
What measured remaining at 6 h goes with `Cc1cc(NC(=O)Nc2cc(C(C)(C)C)nn2-c2cccc(C#N)c2)ccc1-c1cnc(NC2CC2)c2nccn12` ?
100

###

Test: Oral bioavailability in ICR mouse at 8.2 mg/kg administered as single dose by LC-MS/MS analysis
Type: ADME, organism-based
Settings: in vivo
Measured Endpoint: bioavailability (%)
A number alone suffices; assume %.

What measured bioavailability goes with `Cc1cc(NC(=O)Nc2cc(C(C)(C)C)nn2-c2ccccc2)ccc1-c1cnc(NC2CC2)c2nccn12` ?
25.2

###

Target: Mitogen-activated protein kinase kinase kinase 7 (Homo sapiens)
Assay: Inhibition of TAK1 (unknown origin) at 1 uM by LanthaScreen Eu kinase binding assay relative to control
Recorded inhibition values for a group of compounds are listed next.
A number alone suffices; assume %.

What measured inhibition goes with `Cc1cc(NC(=O)Nc2cc(C(C)(C)C)nn2-c2cccc(C#N)c2)ccc1-c1cnc(NC2CC2)c2nccn12` ?
97

Another compound to look at: `Cc1cc(NC(=O)Nc2cc(C(C)(C)C)nn2-c2ccccc2)ccc1-c1cnc(NC2CC2)c2ncnn12`
80

Another compound to look at: `Cc1ccc(C(=O)Nc2cc(C(C)(C)C)nn2-c2ccccc2)cc1Oc1cnc(NC2CC2)c2nccn12`
0

More entries:
What measured inhibition goes with `Cc1cc(NC(=O)Nc2cc(C(C)(C)C)nn2-c2cccc(Cl)c2)ccc1-c1cnc(NC2CC2)c2ncnn12` ?
74

###

Assay: Half life in ICR mouse at 10 mg/kg, po administered as single dose or 3 mg/kg, iv by LC-MS/MS analysis
Type: ADME, organism-based
Details: in vivo
Measured Endpoint: half-life (h)
A number alone suffices; assume h.

What measured half-life goes with `Cc1cc(NC(=O)Nc2cc(C(C)(C)C)nn2-c2cccc(C#N)c2)ccc1-c1cnc(NC2CC2)c2nccn12` ?
2.4
